Target: Tyrosine-protein phosphatase non-receptor type 7 (Homo sapiens)
Sequence (P35236 whole entry): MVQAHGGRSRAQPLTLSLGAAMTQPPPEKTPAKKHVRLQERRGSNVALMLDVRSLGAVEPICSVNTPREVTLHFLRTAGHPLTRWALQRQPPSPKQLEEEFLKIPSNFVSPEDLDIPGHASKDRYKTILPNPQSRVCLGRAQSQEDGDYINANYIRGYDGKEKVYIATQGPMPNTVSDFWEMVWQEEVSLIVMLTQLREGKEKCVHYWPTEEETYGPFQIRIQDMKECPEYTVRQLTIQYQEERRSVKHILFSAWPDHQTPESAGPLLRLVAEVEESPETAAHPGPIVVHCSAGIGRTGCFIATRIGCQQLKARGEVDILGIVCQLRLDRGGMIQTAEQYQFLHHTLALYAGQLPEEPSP
Assay type: functional
Activity calls are given as the source filed them.
Field: IC50. Provide a value for each of the molecules that follow.

Noted for O=C1c2ccccc2CC1Sc1nnc(-c2ccco2)c(-c2ccco2)n1 (centres undefined) : its IC50 reads 8.11 µM (active)

Noted for `Cn1c(=O)n(CC(N)=O)c(=O)n(-c2ccccc2)c1=O` : its IC50 reads > 100 µM (not active)

Noted for `COCCCNc1nc(=O)n(-c2ccc(F)cc2)c(=O)[nH]1` : its IC50 reads > 100 µM (not active)

Noted for `Clc1cccc(Cl)c1COc1nnc(-c2cccs2)c(-c2cccs2)n1` : its IC50 reads > 100 µM (not active)

---

Molecular target: UniProtKB P27467
Sequence (P27467 whole entry): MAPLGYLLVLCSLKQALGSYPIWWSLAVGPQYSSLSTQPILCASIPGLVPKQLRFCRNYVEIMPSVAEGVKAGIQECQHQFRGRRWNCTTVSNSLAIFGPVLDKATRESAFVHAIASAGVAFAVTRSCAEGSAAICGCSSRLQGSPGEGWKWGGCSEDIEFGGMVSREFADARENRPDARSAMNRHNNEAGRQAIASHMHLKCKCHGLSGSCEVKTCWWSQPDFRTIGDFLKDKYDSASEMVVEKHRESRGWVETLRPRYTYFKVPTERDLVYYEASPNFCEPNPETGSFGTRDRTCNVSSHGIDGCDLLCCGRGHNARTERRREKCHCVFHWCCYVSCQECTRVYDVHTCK
Assay: antagonism of Wnt3a pathway luciferase reporter – Wnt-LIGHT cells, luminescence, selectivity assay for Gli-SUFU antagonist project, dose response (AID 651570);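 further: Wnt-LIGHT reporter cells stimulated with conditioned medium from Wnt3a-producing cells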
Format: functional
Conditions: read-out: IC50_Mean
Activity calls are given as the source filed them.
measured_property: IC50

Noted for `CC(C)(C)c1ccc(CN2C3=NCCCN3c3ccccc32)cc1` : its IC50 reads 2.94 µM (active)

Noted for `COc1cccc(/C=C/c2ccncc2)c1OC` : its IC50 reads 1.7 µM (active)

Noted for `CCOc1ccc(N2C(=O)/C(=C\NNc3nc(C)cc(C)n3)c3ccccc3C2=O)cc1` : its IC50 reads 11.2 µM (active)

Noted for `O=C(c1cnc(N2CCN(c3ccccn3)CC2)c2ccccc12)N1CCN(c2cccc(Cl)c2)CC1` : its IC50 reads 7.02 µM (active)

---

Biological target: Sentrin-specific protease 7 (Homo sapiens);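 further: Luminescence-based dose-response confirmation of ultra-high-throughput screening hits, measuring inhibition of SENP7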
Sequence (Q9BQF6 whole entry): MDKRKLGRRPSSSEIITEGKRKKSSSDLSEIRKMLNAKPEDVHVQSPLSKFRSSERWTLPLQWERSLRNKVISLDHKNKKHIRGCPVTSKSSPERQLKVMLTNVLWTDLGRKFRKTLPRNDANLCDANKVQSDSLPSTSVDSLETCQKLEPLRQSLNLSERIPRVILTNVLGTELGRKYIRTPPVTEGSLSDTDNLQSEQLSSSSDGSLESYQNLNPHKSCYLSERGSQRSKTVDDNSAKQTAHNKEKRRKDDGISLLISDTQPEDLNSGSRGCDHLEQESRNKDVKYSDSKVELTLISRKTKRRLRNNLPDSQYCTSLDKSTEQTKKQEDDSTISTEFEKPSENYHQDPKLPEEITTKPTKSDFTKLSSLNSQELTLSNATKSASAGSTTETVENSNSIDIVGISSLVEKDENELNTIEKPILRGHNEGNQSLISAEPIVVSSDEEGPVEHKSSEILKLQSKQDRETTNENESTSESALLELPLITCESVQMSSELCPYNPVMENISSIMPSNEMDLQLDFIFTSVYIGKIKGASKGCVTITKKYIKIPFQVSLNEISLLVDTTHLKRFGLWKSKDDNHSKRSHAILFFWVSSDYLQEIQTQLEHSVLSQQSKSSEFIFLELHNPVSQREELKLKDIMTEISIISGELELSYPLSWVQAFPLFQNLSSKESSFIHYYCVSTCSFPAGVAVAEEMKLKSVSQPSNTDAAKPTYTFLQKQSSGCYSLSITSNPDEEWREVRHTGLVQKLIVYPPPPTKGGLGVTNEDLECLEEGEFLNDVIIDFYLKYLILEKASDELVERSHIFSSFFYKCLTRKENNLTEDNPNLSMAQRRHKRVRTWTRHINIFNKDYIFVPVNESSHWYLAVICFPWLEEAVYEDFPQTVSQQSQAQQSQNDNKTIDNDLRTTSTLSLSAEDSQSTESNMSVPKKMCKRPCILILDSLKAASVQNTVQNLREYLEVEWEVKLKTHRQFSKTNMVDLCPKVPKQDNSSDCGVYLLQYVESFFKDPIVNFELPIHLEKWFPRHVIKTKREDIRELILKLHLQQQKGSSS
Format: functional
Activity calls are given as the source filed them.
measured_property: IC50

Noted for `COc1ccc(/C=C2/CCc3ccccc3C2=O)cc1OC` : its IC50 reads 8.88 µM (active)

Noted for `COc1ccc(-n2nc3cc(N)c(Br)cc3n2)cc1` : its IC50 reads 5.03 µM (active)

Noted for `CC(=O)c1sc(Nc2nc3ccc(F)cc3s2)nc1C` : its IC50 reads 5.6 µM (active)

Noted for `Cc1ccc(-c2noc(CSc3ccccc3)n2)cc1` : its IC50 reads 6.8 µM (active)

Noted for `Cc1cc(C)c(O)c(-c2cc(C(=O)Nc3cccnc3)[nH]n2)c1` : its IC50 reads 4.68 µM (active)

Noted for `CNC(=O)c1ccsc1NC(=O)c1ccc2c(c1)CCCC2` : its IC50 reads 5.37 µM (active)

Noted for `Cc1ccc(OCc2nc(-c3cccs3)no2)c([N+](=O)[O-])c1` : its IC50 reads 5.51 µM (active)
